- tgt: NMT1 enzyme (Homo sapiens, UniProt P30419)
- Sequence (P30419 whole entry): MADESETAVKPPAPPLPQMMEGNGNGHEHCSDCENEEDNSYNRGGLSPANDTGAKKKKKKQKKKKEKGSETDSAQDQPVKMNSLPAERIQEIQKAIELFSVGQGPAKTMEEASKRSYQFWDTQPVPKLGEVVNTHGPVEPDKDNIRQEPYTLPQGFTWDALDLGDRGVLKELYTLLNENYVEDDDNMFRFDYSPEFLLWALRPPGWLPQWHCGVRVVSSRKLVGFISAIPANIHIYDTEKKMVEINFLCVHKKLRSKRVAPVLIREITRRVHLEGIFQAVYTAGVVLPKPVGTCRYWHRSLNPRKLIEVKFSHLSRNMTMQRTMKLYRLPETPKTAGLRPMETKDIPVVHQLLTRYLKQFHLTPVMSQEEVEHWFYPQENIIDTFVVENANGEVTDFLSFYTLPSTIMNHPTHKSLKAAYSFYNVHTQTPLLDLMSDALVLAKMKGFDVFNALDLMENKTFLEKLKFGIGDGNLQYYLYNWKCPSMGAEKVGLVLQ
- assay: Inhibitory activity on NMT1 enzyme catalysis (fluorescence intensity assay)
- Type: biochemical
- cond: 6 nM NMT1 enzyme, 1.25 µM myristoyl-CoA, 20 µM HSPP60 SRC peptide, 45 minutes at 25 °C; read-out: NMT1 (IC50)
- Protocol: This study evaluated the ability of the compounds of the invention to inhibit NMT1 catalytic activity in vitro. […] The final concentration of the NMT1 enzyme was 6 nM, the final concentration of CPM (Reactive thiol fluorescence probe, Invitrogen, D346) was 1 µM, the final concentration of HSPP60 SRC was 20 µM, and the final concentration of DMSO was 0.5%. Compounds were dissolved in DMSO to obtain 10 mM stock solutions. […]
pIC50: −log10 of the molar value.

[
  {
    "compound": "Cc1c(NS(=O)(=O)c2c(Cl)cc(-c3ccc4sc5c(c4c3)CNCC5)cc2Cl)c(CO)nn1C [Compound 14]",
    "pIC50": 8.10
  },
  {
    "compound": "CCc1nn(C)c(C)c1NS(=O)(=O)c1c(Cl)cc(-c2ccn3nc4c(c3c2)CNCC4)cc1Cl [Compound 49]",
    "pIC50": 8.44
  },
  {
    "compound": "Cc1c(NS(=O)(=O)c2c(Cl)cc(-c3ccc4sc5c(c4c3)CNCC5)cc2Cl)c(C2CC2)nn1C [Compound 4]",
    "pIC50": 8.44
  },
  {
    "compound": "Cc1c(NS(=O)(=O)c2c(Cl)cc(-c3ccc4sc5c(c4c3)CNCC5)cc2Cl)c(CF)nn1C [Compound 16]",
    "pIC50": 8.33
  },
  {
    "compound": "Cc1nn(C)c(C)c1NS(=O)(=O)c1ccc(-c2ccc3sc4c(c3c2)CNCC4)cc1Cl [Compound B1]",
    "pIC50": 8.57
  },
  {
    "compound": "Cc1nn(C)c(C)c1NS(=O)(=O)c1c(Cl)cc(N2CCc3sc4c(c3C2)CNCC4)cc1Cl [Compound 65]",
    "pIC50": 8.45
  },
  {
    "compound": "Cc1c(NS(=O)(=O)c2ccc(-c3ccc4sc5c(c4c3)CNCC5)cc2)c(CC2CC2)nn1C [Compound B30]",
    "pIC50": 8.59
  },
  {
    "compound": "Cc1nn(C)c(C)c1NS(=O)(=O)c1ccc(-c2ccc3sc4c(c3c2)CNCC4)cc1 [Compound B4]",
    "pIC50": 8.53
  },
  {
    "compound": "Cc1c(NS(=O)(=O)c2c(Cl)cc(-c3ccc4oc5c(c4c3)CNCC5)cc2Cl)c(CC(F)F)nn1C [Compound B56]",
    "pIC50": 8.46
  },
  {
    "compound": "CCc1nn(C)c(C)c1NS(=O)(=O)c1ccc(-c2ccc3sc4c(c3c2)CNCC4)cc1Cl [Compound B7]",
    "pIC50": 8.53
  },
  {
    "compound": "Cc1c(NS(=O)(=O)c2c(Cl)cc(-c3ccc4sc5c(c4c3)CNCC5)cc2Cl)c(CC(C)C)nn1C [Compound 3]",
    "pIC50": 8.46
  },
  {
    "compound": "Cc1c(NS(=O)(=O)c2c(Cl)cc(N3CCc4sc5c(c4C3)CNCC5)cc2Cl)c(CCF)nn1C [Compound B46]",
    "pIC50": 8.69
  },
  {
    "compound": "Cc1c(NS(=O)(=O)c2ccc(-c3ccc4oc5c(c4c3)CNCC5)cc2)c(CC(F)F)nn1C [Compound B64]",
    "pIC50": 8.39
  },
  {
    "compound": "Cc1c(NS(=O)(=O)c2ccc(-c3ccc4oc5c(c4c3)CNCC5)cc2Cl)c(CC(F)(F)F)nn1C [Compound B39]",
    "pIC50": 8.32
  }
]
